Please respond with reported IC50 for every item in the list.
Tested on: K562 cells
Test Details: Cell growth inhibitory activity assay (CellTiter-Glo), K562 cells
Type: cell-based
Measurement Setup: Homo sapiens, 72 h, CTG cell viability

Record excerpt, results attached:
[2H]C([2H])([2H])C([2H])(n1cc2c(n1)-c1cc(-c3cc(C(=O)Nc4ccc(OC(F)(F)Cl)cc4)cc4nc5n(c34)[C@H](C)COC5)cnc1C2)C([2H])([2H])[2H]
≤ 5 nM
O=C(Nc1ccc(OC(F)(F)Cl)cc1)c1cnc(N2CC[C@H](F)C2)c(-c2cnc3c(c2)-c2nn(-c4ncc(F)cn4)cc2C3)c1
≤ 5 nM
COc1ccc(-c2ccnc(-n3ncc4c3-c3cc(-c5cc(C(=O)Nc6ccc(OC(F)(F)Cl)cc6)cc6nc7n(c56)[C@H](C)COC7)cnc3C4)n2)cc1F
≤ 5 nM
C[C@@H]1COCc2nc3cc(C(=O)Nc4ccc(OC(F)(F)Cl)cc4)cc(-c4cnc5c(c4)-c4nn(-c6ncc7cccnc7n6)cc4C5)c3n21
≤ 5 nM

Take each entry in turn and give its IC50.
1. Cn1ccc(-c2ccnc(-n3cc4c(n3)-c3cc(-c5cc(C(=O)Nc6ccc(OC(F)(F)Cl)cc6)cc6c5C5(CCCCC5)C(=O)N6)cnc3C4)n2)n1
2. O=C(Nc1ccc(OC(F)(F)Cl)cc1)c1cnc(N2CC[C@@H](F)C2)c(-c2cnc3c(c2)-c2nn(-c4ncc(N5CC[C@@H](F)C5)cn4)cc2C3)c1

≤ 5 nM
≤ 5 nM

---

Please respond with reported IC50 for every item in the list.
Target Of Assay: Ba/F3 BCR-ABL1 T315M (Homo sapiens, UniProt P00519+P11274, T315M)
Construct: BCR (N-terminal fusion partner of the oncoprotein)
Sequence (P00519 27-1130 T315M limits assumed, one chain of several): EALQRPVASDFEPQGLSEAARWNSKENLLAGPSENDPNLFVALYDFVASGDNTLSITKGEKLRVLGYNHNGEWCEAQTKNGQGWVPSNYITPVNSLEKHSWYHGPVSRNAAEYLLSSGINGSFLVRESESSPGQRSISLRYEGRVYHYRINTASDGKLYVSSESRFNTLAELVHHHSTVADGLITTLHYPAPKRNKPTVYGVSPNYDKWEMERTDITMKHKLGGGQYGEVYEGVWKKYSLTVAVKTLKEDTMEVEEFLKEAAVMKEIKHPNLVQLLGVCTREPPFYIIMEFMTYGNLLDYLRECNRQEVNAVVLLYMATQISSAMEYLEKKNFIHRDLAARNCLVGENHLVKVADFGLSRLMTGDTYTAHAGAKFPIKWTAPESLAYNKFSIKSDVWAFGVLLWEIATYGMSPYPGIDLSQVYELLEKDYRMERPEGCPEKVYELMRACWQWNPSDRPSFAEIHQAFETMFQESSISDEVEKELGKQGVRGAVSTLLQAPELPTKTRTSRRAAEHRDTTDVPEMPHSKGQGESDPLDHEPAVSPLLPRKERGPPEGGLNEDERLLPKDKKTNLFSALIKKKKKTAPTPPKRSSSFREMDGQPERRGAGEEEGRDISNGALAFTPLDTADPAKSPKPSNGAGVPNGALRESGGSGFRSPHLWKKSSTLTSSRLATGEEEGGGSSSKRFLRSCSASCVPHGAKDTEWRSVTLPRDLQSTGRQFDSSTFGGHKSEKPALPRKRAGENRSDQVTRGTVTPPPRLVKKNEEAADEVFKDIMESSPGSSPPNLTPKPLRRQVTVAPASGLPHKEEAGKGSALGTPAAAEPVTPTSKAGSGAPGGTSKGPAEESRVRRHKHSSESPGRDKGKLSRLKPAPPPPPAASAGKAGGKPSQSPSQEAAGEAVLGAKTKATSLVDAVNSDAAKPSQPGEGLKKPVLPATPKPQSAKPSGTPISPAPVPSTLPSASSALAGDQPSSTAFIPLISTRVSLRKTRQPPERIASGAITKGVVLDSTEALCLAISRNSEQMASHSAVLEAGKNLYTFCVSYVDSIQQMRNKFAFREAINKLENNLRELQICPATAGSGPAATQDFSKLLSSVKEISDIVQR
Test Details: Cell growth inhibitory activity assay (CellTiter-Glo), Ba/F3 BCR-ABL1 T315M cells
Measurement Setup: 72 h, CTG cell viability
Experimental: In this assay, the Celltiter-Glo (CTG) kit provided by Promega was used, and it is a homogeneous cell viability assay method. The cell viability of cultured cells was measured by quantifying ATP. […] The steps of cell viability assay are as follows: • a) Cells in logarithmic growth phase were collected. Cell suspension was prepared and the cells were counted. […]

Record excerpt, results attached:
CCn1cc2c(n1)-c1cc(-c3cc(C(=O)Nc4ccc(OC(F)(F)Cl)cc4)cc4nc5n(c34)[C@H](C)COC5)cnc1C2
> 1 µM
C[C@@H]1COCc2nc3cc(C(=O)Nc4ccc(OC(F)(F)Cl)cc4)cc(-c4cnccn4)c3n21
> 1 µM
C[C@@H]1COCc2nc3cc(C(=O)Nc4ccc(OC(F)(F)Cl)cc4)cc(-c4cnc5c(c4)-c4c(cnn4-c4nccc(C#N)n4)C5)c3n21
0.05 to 1 µM
[2H]C([2H])([2H])C([2H])(n1cc2c(n1)-c1cc(-c3cc(C(=O)Nc4ccc(OC(F)(F)Cl)cc4)cc4nc5n(c34)[C@H](C)COC5)cnc1C2)C([2H])([2H])[2H]
> 1 µM
C[C@@H]1COCc2nc3cc(C(=O)Nc4ccc(OC(F)(F)Cl)cc4)cc(-c4cnc5c(c4)C(=O)N(C)C5)c3n21
> 1 µM

So, C[C@@H]1COCc2nc3cc(C(=O)Nc4ccc(OC(F)(F)Cl)cc4)cc(-c4cnc5c(c4)-c4nn(-c6ccccn6)cc4C5)c3n21 ? Its IC50 was > 1 µM
